# TARGET_SYSTEM: MMP-13CD (catalytic domain of collagenase 3) (Homo sapiens, UniProt P45452)
# ASSAY_REMARKS: Thiopeptolide hydrolysis assay, MMP-13;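 further: inhibition of enzymatic thiopeptolide substrate cleavage (100 µM) in pH 6.0 MES buffer with CaCl2 and DTNB, comparing hydrolysis with versus without inhibitor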
# MEASUREMENT_CONDITIONS: MMP13 IC50 μM, Table IVb
MEASUREMENT_LABEL: IC50 (µM)
A number alone suffices; assume µM.

COc1ccc(CNC(=O)c2ccc3c(c2)c(=O)n(Cc2ccc(Br)cc2)c(=O)n3C)cc1 : 0.013
Cn1c(=O)n(Cc2ccc(Cl)cc2)c(=O)c2cc(C(=O)NCc3cccnc3)ccc21 : 0.093
O=C(O)Cn1c(=O)n(Cc2ccccc2)c(=O)c2cc(C(=O)NCc3ccc4c(c3)OCO4)ccc21 : 0.105
Cn1c(=O)n(Cc2ccc(C(=O)O)cc2)c(=O)c2cc(C(=O)NCc3ccc(O)cc3)ccc21 : 0.002
COc1ccc(CNC(=O)c2ccc3c(c2)c(=O)n(Cc2ccc(S(C)(=O)=O)cc2)c(=O)n3C)cc1 : 0.0125

Prompt: Request: IC50, test system MMP-13CD (catalytic domain of collagenase 3) (Homo sapiens, UniProt P45452), entry COc1ccc(CNC(=O)c2ccc3c(c2)c(=O)n(Cc2ccc(-c4noc(C)n4)cc2)c(=O)n3C)cc1
Response: 0.0049

Prompt: Give the reported IC50 for COc1ccc(CNC(=O)c2ccc3c(c2)c(=O)n(Cc2ccc(C(=O)O)o2)c(=O)n3C)cc1 (system: MMP-13CD (catalytic domain of collagenase 3) (Homo sapiens, UniProt P45452)).
Response: 0.057

Prompt: Identify the measured IC50 of COc1cccc(CNC(=O)c2cc3c(=O)n(Cc4ccc(C(=O)O)cc4)c(=O)n(C)c3cn2)c1 for MMP-13CD (catalytic domain of collagenase 3) (Homo sapiens, UniProt P45452).
Response: 0.0011

Prompt: What is its IC50 for MMP-13CD (catalytic domain of collagenase 3) (Homo sapiens, UniProt P45452)? Entry: COc1ccc(CNC(=O)c2ccc3c(c2)c(=O)n(CCn2cccc2)c(=O)n3C)cc1
Response: 1.45

Prompt: Recall the recorded IC50 for Cn1c(=O)n(Cc2ccccc2)c(=O)c2cc(SCc3ccccc3)ccc21 with MMP-13CD (catalytic domain of collagenase 3) (Homo sapiens, UniProt P45452) and state it.
Response: 4.1

Prompt: Recall the recorded IC50 for COc1ccc(CNC(=O)c2ccc3c(c2)c(=O)n(CC2CCCCC2)c(=O)n3C)cc1 with MMP-13CD (catalytic domain of collagenase 3) (Homo sapiens, UniProt P45452) and state it.
Response: 0.042

Source: patent US20050004126A1
